The reported measurements were obtained from patent US11008314B2.

target: TXK (Homo sapiens (Human), UniProt P42681); test: IC50 against TXK; assay type: biochemical
Sequence (P42681 whole entry, species assumed): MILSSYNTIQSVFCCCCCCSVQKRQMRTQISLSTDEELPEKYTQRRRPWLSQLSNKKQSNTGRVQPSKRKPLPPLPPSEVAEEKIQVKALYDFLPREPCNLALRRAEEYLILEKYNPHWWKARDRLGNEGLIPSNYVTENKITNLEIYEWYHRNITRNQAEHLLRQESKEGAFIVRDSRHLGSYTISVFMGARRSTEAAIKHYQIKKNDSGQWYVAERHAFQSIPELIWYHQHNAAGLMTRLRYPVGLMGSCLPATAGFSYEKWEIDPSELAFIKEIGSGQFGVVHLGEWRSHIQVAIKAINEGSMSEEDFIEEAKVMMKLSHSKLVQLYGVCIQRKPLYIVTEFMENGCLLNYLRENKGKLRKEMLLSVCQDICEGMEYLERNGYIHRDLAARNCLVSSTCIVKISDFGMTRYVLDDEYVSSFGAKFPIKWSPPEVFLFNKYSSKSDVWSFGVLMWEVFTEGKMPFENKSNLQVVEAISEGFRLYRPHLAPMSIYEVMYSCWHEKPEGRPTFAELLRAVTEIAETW
PARAMETER MEASURED: IC50

Some solved cases for reference:
{"columns": ["COMPOUND", "STUDY TARGET", "IC50"],
 "data": [
  ["C=CC(=O)N1CCCN(C(=O)c2cc(Sc3cnc(NC(C)=O)s3)c(C)cc2OC)CC1", "TXK (Homo sapiens (Human), UniProt P42681)", "100 to 1000 nM"],
  ["C=CC(=O)N1CCCN(C(=O)c2cc(Sc3cnc(NC(=O)CN(C)C)s3)c(C)cc2OC)CC1", "TXK (Homo sapiens (Human), UniProt P42681)", "≥ 10000 nM"],
  ["C=CC(=O)N1CCN(C(=O)c2cccc(Cc3cnc(NC(=O)C4CC4)s3)c2)CC1", "TXK (Homo sapiens (Human), UniProt P42681)", "10 to 100 nM"],
  ["C=C(CN(C)C)C(=O)N1CCN(C(=O)c2cc(Sc3cnc(NC(=O)C4CC4)s3)c(C)cc2OC)CC1", "TXK (Homo sapiens (Human), UniProt P42681)", "100 to 1000 nM"],
  ["C=CC(=O)N1CCCN(C(=O)c2cc(Sc3cnc(NC(=O)c4ccc(F)c(CN(C)C)c4)s3)c(C)cc2OC)CC1", "TXK (Homo sapiens (Human), UniProt P42681)", "1000 to 10000 nM"],
  ["C=CC(=O)N1CCN(C(=O)c2cc(Sc3cnc(NC(=O)C4CC4)s3)c(Cl)cc2C)C[C@H]1CC", "TXK (Homo sapiens (Human), UniProt P42681)", "100 to 1000 nM"]
]}

// switching to the query compound
Challenge: Suppose we examine the compound "C=CC(=O)N1CCCN(C(=O)c2cc(Sc3cnc(NC(=O)C4CC4)s3)c(C)cc2OC)C[C@H]1CC" ; what IC50 value has been reported?
Response given: 100 to 1000 nM
